Assay: AUC (0 to infinity) in Sprague-Dawley rat at 1 mg/kg, iv measured by LC-MS analysis
Type: ADME, organism-based
Parameters: time infinity, route intravenous, dose 1 mg/kg
Settings: in vivo
measured quantity: AUC(0-inf) (ng·h/mL)
Answer format: numeric, ng·h/mL implied, no suffix.

Query: Reported AUC(0-inf) for `COc1cc(/C=C/c2nc(NCc3ccc(C)cc3)c3sccc3n2)cc(OC)c1OC` : what is it?
Response: 401

* * *

Biological target: Cytochrome P450 1A2 (Homo sapiens)
Sequence (P05177 whole entry): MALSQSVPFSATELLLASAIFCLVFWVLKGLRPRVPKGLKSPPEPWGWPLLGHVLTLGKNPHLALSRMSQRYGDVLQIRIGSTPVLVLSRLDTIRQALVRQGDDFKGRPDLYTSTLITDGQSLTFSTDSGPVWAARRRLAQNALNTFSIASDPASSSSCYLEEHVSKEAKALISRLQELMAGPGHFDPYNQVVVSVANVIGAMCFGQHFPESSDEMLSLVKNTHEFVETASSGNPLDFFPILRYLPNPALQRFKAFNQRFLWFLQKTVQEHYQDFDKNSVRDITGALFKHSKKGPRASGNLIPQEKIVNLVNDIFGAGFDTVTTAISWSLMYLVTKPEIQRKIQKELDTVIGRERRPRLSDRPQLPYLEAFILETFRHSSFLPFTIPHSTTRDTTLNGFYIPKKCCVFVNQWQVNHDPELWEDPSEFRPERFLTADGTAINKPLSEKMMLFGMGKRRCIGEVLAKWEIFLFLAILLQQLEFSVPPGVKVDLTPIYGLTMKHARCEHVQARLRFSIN
measured quantity: pIC50
Units for pIC50: none; it is -log10 of a concentration expressed in mol/L.

Query: Hi! What's the reported pIC50 for `COc1cc(/C=C/c2nc(NCc3ccc(C)cc3)c3sccc3n2)cc(OC)c1OC` on Cytochrome P450 1A2 (Homo sapiens)?
Response: 4.37

* * *

Experiment: Cmax in Sprague-Dawley rat at 10 mg/kg, po measured after 0.25 to 24 hrs by LC-MS/MS analysis
Format: ADME, organism-based
Set-up: route oral, time lower 0.25 hrs, dose 10 mg/kg, time upper 24 hrs
Conditions: in vivo
measured quantity: Cmax (ng/mL)
Answer format: numeric, ng/mL implied, no suffix.

Query: Reported Cmax for `COc1cc(/C=C/c2nc(NCc3ccc(C)cc3)c3sccc3n2)cc(OC)c1OC` : what is it?
Response: 131

* * *

System: RAW264.7
Assay: Antiinflammatory activity against mouse RAW264.7 cells assessed as inhibition of LPS-induced NO production at 10 uM preincubated for 1 hrs followed by LPS stimulation and measured after 24 hrs by Griess assay relative to control
Format: functional
Details: time 25 hrs
Threshold check on inhibition at 10 µM: at or above 40% gives yes (1), strictly below gives no (0).

Consider the worked cases shown below.
| smiles string | category label |
| --- | --- |
| C(=C\c1ccco1)/c1nc(N2CCOCC2)c2sccc2n1 | no (0) |
| COc1cc(/C=C/c2nc(N(C)C)c3sccc3n2)cc(OC)c1OC | no (0) |
| CCCc1nn(C)c2c(NCCc3cccc(Cl)c3)nc(/C=C/c3ccc[n+]([O-])c3)nc12 | no (0) |
| CCN1CCN(c2nc(/C=C/c3cc(OC)c(OC)c(OC)c3)nc3ccsc23)CC1 | yes (1) |
| CCCc1nn(C)c2c(NC3CC3)nc(/C=C/c3nc(C)c(C)nc3C)nc12 | yes (1) |
| Fc1ccccc1CNc1nc(/C=C/c2ccco2)nc2ccsc12 | no (0) |
| CCCc1nn(C)c2c(NCCc3ccccc3)nc(/C=C/c3ccc[n+]([O-])c3)nc12 | yes (1) |
| Brc1cccc(Nc2nc(/C=C/c3ccccc3)nc3ccsc23)c1 | no (0) |

Read the next record carefully.
Query: Say whether `CCCc1nn(C)c2c(NCCc3ccccc3)nc(/C=C/c3cccnc3)nc12` shows inhibition at 10 µM of 40% or more.
Response: yes (1)

Provenance of the data: ChEMBL document CHEMBL4813945
